Below, each entry is listed with its recorded Bas.
# Species: Rattus norvegicus
# ASSAY OVERVIEW: Open TG-GATES - Regimen: Single
# Format: toxicity, organism-based, Sprague-Dawley
# Set-up: regimen Single, gender Male, age 6 weeks
# STATED CONDITIONS: in vivo, po, 100 mg/kg, 24 h, tissue Blood, route gavage, dose level Low
State just the number; it will be interpreted in %.

// known answers, use as guide
[[record]]
molecule = "CN(C)CCC=C1c2ccccc2COc2ccccc21 [DOXEPIN]"
measured_attribute = "Bas"
units_symbol = "%"
experimental_value = 0

[[record]]
molecule = "CCC1(c2ccccc2)C(=O)NC(=O)NC1=O [PHENOBARBITAL]"
measured_attribute = "Bas"
units_symbol = "%"
experimental_value = 0.8

[[record]]
molecule = "CN(C)C(=N)N=C(N)N [METFORMIN]"
measured_attribute = "Bas"
units_symbol = "%"
experimental_value = 0


## Task Would you kindly share the measured Bas for O=NN1CCOCC1 [N-NITROSOMORPHOLINE] ?
## Result 0
